- study target: T1, recombinant human PD-1 Fc chimera (human, UniProt Q15116 25-167)
- T1 construct: Bought (R&D 1086-PD); Labelled with europium cryptate in the PD-L2 HTRF assay; also called human PD-1 (R&D Systems cat no. 1086-PD); human PD-1-huFc; not shown: human Fc of the bought chimera
- T1 sequence (Q15116 25-167, change not shown): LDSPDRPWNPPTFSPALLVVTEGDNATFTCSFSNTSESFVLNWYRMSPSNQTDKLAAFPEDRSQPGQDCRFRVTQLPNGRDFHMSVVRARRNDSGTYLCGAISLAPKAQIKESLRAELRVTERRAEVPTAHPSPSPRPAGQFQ
- assay: BLI (Octet), PD-1-huFc on biosensor, 1:1 fit
- Description: Binding kinetics of clones to human PD-1-huFc were measured in real-time bio-layer interferometer based biosensor Octet (ForteBio). Recombinant human PD-1-huFc was either immobilized by standard amine coupling to amine reactive biosensors in 10 mM sodium acetate at pH 5.0 or capture by protein G biosensors (ForteBio). […] Kinetic association (kₐ) and dissociation (kd) rate constants were determined by processing and fitting the data to a 1:1 binding model using ForteBio Analysis software.
// reported koff for each item listed
Lab book: enter the figure in s⁻¹, no units written.

The following binders have reported results that may help.
binder	experimental result
Humabody VH 2.13 (VHH, human VH single domain antibody) VHH: EVQLVESGGGVVRPGGSLRLSCAASGFTFDDYAMSWVRQAPGKGLEWVSGITWNRGSTGYADSVKGRFTISRDNAKNSLYLQMNSLRAEDTALYYCVRDKYSYAWSYDDFDIWGQGTMVTVSS	0.035
Humabody VH 2.53 (VHH, human VH single domain antibody) VHH: EVQLVESGGGVVRPGGSLRLSCAASGFTFDDYAMSWVRQAPGKGLEWVSGITWNGGSTGYADSVKDRFTISRDNAKNSLYLQMNSLRAEDTALYYCVRDKYSYAWSYDDFDIWGQGTMVTVSS	0.017

// returns reported koff for input Humabody VH 1.37 (VHH, human VH single domain antibody) VHH: EVQLVESGGGLVQPGRSLRLSCAASGFTFDDYAFHWVRQAPGKDLEWVSGISWNGGSMGYADSVKGRFTISRDNAKNSLYLQMNSLRAEDTALYYCVREKGPGLTGSTADYYGLDAWGQGTMVTVSS
0.0013

// returns reported koff for input Humabody VH 2.39 (VHH, human VH single domain antibody) VHH: EVQLVESGGGVVRPGGSLRLSCAASGFTFDDYAESWVRQAPGKGLEWVSGITWNGGSTGYADSVKDRFTISRDNAKNSLYLQMNSLRAEDTALYYCVRDKYSYAWSYDGFDIWGQGTMVTVSS
0.00059
